- study-system: human CB2 (Homo sapiens, UniProt P34972)
- Sequence (P34972 whole entry): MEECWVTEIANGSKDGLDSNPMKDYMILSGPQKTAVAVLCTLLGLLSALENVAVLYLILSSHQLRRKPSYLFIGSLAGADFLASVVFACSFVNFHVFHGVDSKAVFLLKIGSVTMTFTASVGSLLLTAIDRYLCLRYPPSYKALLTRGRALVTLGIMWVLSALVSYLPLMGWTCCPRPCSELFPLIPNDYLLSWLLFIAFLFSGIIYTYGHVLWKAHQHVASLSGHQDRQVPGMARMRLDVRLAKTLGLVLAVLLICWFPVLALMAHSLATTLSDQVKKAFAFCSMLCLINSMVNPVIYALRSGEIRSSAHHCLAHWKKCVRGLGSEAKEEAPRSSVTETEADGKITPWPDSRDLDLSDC
- protocol-notes: competitive radioligand binding assay, displacement of [3H]CP55,940, HEK cell membranes
- Design: expressed in transfected cells; host or cells: HEK293 cells, P2 membrane preparation
- condition-notes: hCB2 Ki, [3H]CP55,940 1 nM, value in brackets after pKi
attribute-measured: Ki

Query the reported Ki for human CB2 (Homo sapiens, UniProt P34972); item: CC(C)[C@H](NC(=O)c1cn(CCCCC#N)c2ncccc12)C(N)=O
3240 nM

Query the reported Ki for human CB2 (Homo sapiens, UniProt P34972); item: NC(=O)[C@H](Cc1ccccc1)NC(=O)c1nn(CCCCF)c2ccccc12
28.2 nM

Query the reported Ki for human CB2 (Homo sapiens, UniProt P34972); item: CC(C)[C@H](NC(=O)c1cn(CCCCF)c2ccccc12)C(N)=O
82 nM

Query the reported Ki for human CB2 (Homo sapiens, UniProt P34972); item: COC(=O)[C@@H](NC(=O)c1cn(CCCCF)c2ccccc12)C(C)C
26.9 nM

Query the reported Ki for human CB2 (Homo sapiens, UniProt P34972); item: CC(C)[C@H](NC(=O)c1nn(CCCCC#N)c2ccccc12)C(N)=O
24 nM

Query the reported Ki for human CB2 (Homo sapiens, UniProt P34972); item: NC(=O)[C@H](Cc1ccccc1)NC(=O)c1cn(CCCCF)c2ncccc12
2400 nM

Query the reported Ki for human CB2 (Homo sapiens, UniProt P34972); item: COC(=O)[C@@H](NC(=O)c1cn(CCCCC#N)c2ncccc12)C(C)C
316 nM

Query the reported Ki for human CB2 (Homo sapiens, UniProt P34972); item: COC(=O)[C@@H](NC(=O)c1cn(CCCCF)c2ncccc12)C(C)C
61 nM

----------
- study-system: human CB1 (Homo sapiens, UniProt P21554)
- Sequence (P21554 whole entry): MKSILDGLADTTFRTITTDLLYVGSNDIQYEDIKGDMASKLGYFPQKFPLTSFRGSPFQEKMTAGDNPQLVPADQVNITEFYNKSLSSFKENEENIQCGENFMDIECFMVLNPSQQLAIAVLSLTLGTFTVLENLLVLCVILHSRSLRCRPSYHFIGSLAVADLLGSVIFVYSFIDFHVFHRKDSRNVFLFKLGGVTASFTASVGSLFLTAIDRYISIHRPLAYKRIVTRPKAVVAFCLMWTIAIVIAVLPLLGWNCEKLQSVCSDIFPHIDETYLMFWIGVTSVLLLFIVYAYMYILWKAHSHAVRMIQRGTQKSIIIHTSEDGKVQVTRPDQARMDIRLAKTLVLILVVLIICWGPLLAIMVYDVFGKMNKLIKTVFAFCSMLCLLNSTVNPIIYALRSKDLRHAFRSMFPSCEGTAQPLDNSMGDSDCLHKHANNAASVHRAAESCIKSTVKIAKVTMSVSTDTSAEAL
- protocol-notes: competitive radioligand binding assay, displacement of [3H]CP55,940, HEK cell membranes
- Parameters: expressed in transfected cells; host or cells: HEK293 cells, P2 membrane preparation
- condition-notes: hCB1 Ki, [3H]CP55,940 1 nM, value in brackets after pKi
Listing of recorded pKi by entry.
Here pKi is given on a logarithmic scale as minus log10 of the concentration in mol/L.

COC(=O)[C@@H](NC(=O)c1cn(CCCCC#N)c2ncccc12)C(C)(C)C; 8.04
COC(=O)[C@@H](NC(=O)c1cn(CCCCF)c2ccccc12)C(C)C; 7.01

Now turn to the next compound.
Need pKi, item CC(C)(C)[C@H](NC(=O)c1cn(CCCCF)c2ncccc12)C(N)=O
5.89

----------
Listing of recorded pKi by entry.
- study-system: human CB1 (Homo sapiens)
- protocol-notes: competitive radioligand binding assay, displacement of [3H]CP55,940, HEK cell membranes
- Set-up: expressed in transfected cells; host or cells: HEK293 cells, P2 membrane preparation
- condition-notes: hCB1 pKi ±SEM, [3H]CP55,940 1 nM, mean ± SEM of 3 to 6 independent experiments
Here pKi is given on a logarithmic scale as minus log10 of the concentration in mol/L.

CC(C)[C@H](NC(=O)c1nn(CCCCF)c2ccccc12)C(N)=O [Compound 28]; 6.88
COC(=O)[C@@H](NC(=O)c1nn(CCCCF)c2ccccc12)C(C)C [Compound 36]; 7.50
N#CCCCCn1nc(C(=O)N[C@@H](Cc2ccccc2)C(N)=O)c2ccccc21 [Compound 13]; 5.97

Need pKi, item NC(=O)[C@H](Cc1ccccc1)NC(=O)c1cn(CCCCF)c2ccccc12 [Compound 27]
5.50

Need pKi, item CC(C)(C)[C@H](NC(=O)c1cn(CCCCF)c2ncccc12)C(N)=O [Compound 32]
5.90

Need pKi, item COC(=O)[C@@H](NC(=O)c1cn(CCCCF)c2ncccc12)C(C)C [Compound 38]
6.65

Hello, the source for this data is paper PMC9558907, in case you need it.
